tested on: Morningglory; experiment: Post-emergence herbicidal activity, greenhouse; format: in vivo; conditions: Table II; 1.12 kg/h; 4 WAT
metric_name: post-emergence herbicidal activity index

Ask: Record request: post-emergence herbicidal activity index value, item O=C(CN(CP(=O)(Oc1ccccc1)Oc1ccccc1)SSCCc1ccccc1)OCc1ccccc1
Reply: 0 (0- 24% control)

Ask: Can you handle COC(=O)CN(CP(=O)(Oc1ccccc1)Oc1ccccc1)SSC(C)C next?
Reply: 2 (50-74% control)

Ask: Entry to check: CCCCCCCCSSN(CC(=O)OC)CP(=O)(Oc1ccccc1)Oc1ccccc1
Reply: 1 (25-49% control)

Ask: Another compound to look at: COC(=O)CN(CP(=O)(Oc1ccccc1OC)Oc1ccccc1OC)SSc1cccc(C(F)(F)F)c1
Reply: 1 (25-49% control)

Ask: Repeat with CCOC(=O)CN(CP(=O)(Oc1ccc(OC)cc1)Oc1ccc(OC)cc1)SSC
Reply: 2 (50-74% control)

====

test system: Johnsongrass; experiment: Pre-emergent herbicidal activity; format: in vivo; details: Table III; 11.2 kg/h; 2 WAT
metric_name: pre-emergent herbicidal activity index

Ask: So what does the record say about pre-emergent herbicidal activity index for O=C(CN(CP(=O)(Oc1ccccc1)Oc1ccccc1)SSC1CCCCC1)OCc1ccccc1 ?
Reply: 0 (0-24% control)

Ask: Entry CCCCCCCCSSN(CC(=O)OC)CP(=O)(Oc1ccccc1)Oc1ccccc1 please
Reply: 2 (50-74% control)

Ask: Another compound: COC(=O)CN(CP(=O)(Oc1ccccc1)Oc1ccccc1)SSC(C)C
Reply: 0 (0-24% control)

Ask: Could you do the same for CCOC(=O)CN(CP(=O)(Oc1ccc(OC)cc1)Oc1ccc(OC)cc1)SSC , please?
Reply: 0 (0-24% control)

Ask: Queued: COC(=O)CN(CP(=O)(Oc1ccccc1OC)Oc1ccccc1OC)SSc1cccc(C(F)(F)F)c1
Reply: 3 (75-100% control)

====

system: Downy Brome; experiment: Post-emergence herbicidal activity, greenhouse; format: in vivo; conditions: Table II; 1.12 kg/h; 4 WAT
metric_name: post-emergence herbicidal activity index

Ask: What does the data say about its post-emergence herbicidal activity index? Entry: CCCCCCCCSSN(CC(=O)OC)CP(=O)(Oc1ccccc1)Oc1ccccc1
Reply: 0 (0- 24% control)

Ask: What about this compound? CCOC(=O)CN(CP(=O)(Oc1ccc(OC)cc1)Oc1ccc(OC)cc1)SSC
Reply: 2 (50-74% control)

Ask: And for COC(=O)CN(CP(=O)(Oc1ccccc1OC)Oc1ccccc1OC)SSc1cccc(C(F)(F)F)c1 ?
Reply: 0 (0- 24% control)
